Data provenance is patent US20250296971A1.

Overview of reported pIC50 across a group of binders:
Target: human Gastric Inhibitory Peptide Receptor (human) (UniProt P48546)
Sequence (P48546 22-466 limits assumed): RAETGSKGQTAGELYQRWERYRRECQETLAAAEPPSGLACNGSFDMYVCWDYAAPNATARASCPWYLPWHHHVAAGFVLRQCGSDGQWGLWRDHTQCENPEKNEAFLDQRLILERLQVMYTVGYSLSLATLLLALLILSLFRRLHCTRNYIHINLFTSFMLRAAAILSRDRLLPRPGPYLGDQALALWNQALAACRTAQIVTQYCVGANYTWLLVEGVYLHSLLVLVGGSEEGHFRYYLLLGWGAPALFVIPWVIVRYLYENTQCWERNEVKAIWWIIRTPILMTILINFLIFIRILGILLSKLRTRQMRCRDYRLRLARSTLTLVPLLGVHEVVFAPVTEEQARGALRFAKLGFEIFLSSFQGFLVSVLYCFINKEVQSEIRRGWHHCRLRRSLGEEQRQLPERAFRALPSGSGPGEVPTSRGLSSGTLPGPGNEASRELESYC
Test: FACS competition with GIP-057 on CHO-K1-hGIPR cells; pIC50 category A: >8.0
*1 amine or outer side, *2 acyl side, *3 side chain or, on linkers, in order; H or OH if unused. Bridges are numbered along the chain shown (N, C = ends). [ ]: non-standard residue; d: D form. The star is where a group is joined. Ttds = 1,13-diamino-4,7,10-trioxatridecan-succinamic acid, NCCCOCCOCCOCCCNC(=O)CCC(=O)*; DOTA(In) = O=C1CN2CCN3CCN(CC(=O)*)CCN(CC2)CC(=O)[O][In]([O]1)[O]C(=O)C3; dE(AGLU) = D-glutamic acid bearing 1-amino-1-deoxy-D-glucitol; Pro(trans-4-NH2) = O=C([C@@H]1C[C@@H](N[*:3])CN1[*:1])[*:2]; DOTA = O=C(O)CN1CCN(CC(=O)O)CCN(CC(=O)*)CCN(CC(=O)O)CC1; 3MeBn = 3-methyl-benzylidene (derived from 1,3-xylene); Trp(5-Br) = N[C@@H](Cc1c[nH]c2ccc(Br)cc12)C(=O)O; Trp(5-Cl) = N[C@@H](Cc1c[nH]c2ccc(Cl)cc12)C(=O)O; Pyridine(2,6-diCH2) = c1cc(C[*:1])nc(C[*:2])c1; APAc = 4-amino-1-carboxymethylpiperidine; Glutaryl = O=C(CCCC(=O)[*:2])[*:1]; AGLU = 1-amino-1-deoxy-D-glucitol; Hyp = O=C(O)[C@@H]1C[C@@H](O)CN1; Cysteamide = C(CS[*:3])N[*:1]; hCys = N[C@@H](CCS)C(=O)O; Api = NC1(C(=O)O)CCNCC1; Thp = NC1(C(=O)O)CCOCC1; Aib = CC(C)(N)C(=O)O; Sar = CNCC(=O)O
READOUT: pIC50

{"BINDER": "{AGLU-Glutaryl-APAc}-DW[Trp(5-Br)][Pro(trans-4-NH2)]E[dL]C[Api](DOTA)LIC-{APAc-dE(AGLU)-NH2} (linker 7-11 via Pyridine(2,6-diCH2)) [AGLU-Glutar-APAc-Asp-Trp-5Brw-Tap-Glu-leu-[Cys(2Lut)-Apc(DOTA)-Leu-Ile-Cys]-APAc-glu(AGLU)-NH2]", "RESULT": "> 8 pic50"}
{"BINDER": "{DOTA(In)-Ttds}-DW[Trp(5-Cl)][Sar]E[dL]C[Aib]LI[Cysteamide] (linker 7-11 via 3MeBn; also: DOTA as indium complex (InDOTA)) [InDOTA-Ttds-Asp-Trp-5Clw-Nmg-Glu-leu-[Cys(3MeBn)-Aib-Leu-Ile-AET]]", "RESULT": "> 8 pic50"}
{"BINDER": "Ac-DW[Trp(5-Cl)][Hyp]E[dL][hCys][Thp]LIC-NH2 (linker 7-11 via Pyridine(2,6-diCH2)) [Ac-Asp-Trp-5Clw-Hyp-Glu-leu-[Hcy(2Lut)-Thp-Leu-Ile-Cys]-NH2]", "RESULT": "> 8 pic50"}
{"BINDER": "{AGLU-Glutaryl-APAc}-DW[Trp(5-Cl)][Hyp]E[dL]C[Api]LIC-{APAc-dE(AGLU)-NH2} (linker 7-11 via Pyridine(2,6-diCH2); not fully specified (residue 8))", "RESULT": "> 8 pic50"}
